- measurement.target: Aminopeptidase N (Plasmodium falciparum FcB1/Columbia) (UniProt O96935)
- Sequence (whole entry): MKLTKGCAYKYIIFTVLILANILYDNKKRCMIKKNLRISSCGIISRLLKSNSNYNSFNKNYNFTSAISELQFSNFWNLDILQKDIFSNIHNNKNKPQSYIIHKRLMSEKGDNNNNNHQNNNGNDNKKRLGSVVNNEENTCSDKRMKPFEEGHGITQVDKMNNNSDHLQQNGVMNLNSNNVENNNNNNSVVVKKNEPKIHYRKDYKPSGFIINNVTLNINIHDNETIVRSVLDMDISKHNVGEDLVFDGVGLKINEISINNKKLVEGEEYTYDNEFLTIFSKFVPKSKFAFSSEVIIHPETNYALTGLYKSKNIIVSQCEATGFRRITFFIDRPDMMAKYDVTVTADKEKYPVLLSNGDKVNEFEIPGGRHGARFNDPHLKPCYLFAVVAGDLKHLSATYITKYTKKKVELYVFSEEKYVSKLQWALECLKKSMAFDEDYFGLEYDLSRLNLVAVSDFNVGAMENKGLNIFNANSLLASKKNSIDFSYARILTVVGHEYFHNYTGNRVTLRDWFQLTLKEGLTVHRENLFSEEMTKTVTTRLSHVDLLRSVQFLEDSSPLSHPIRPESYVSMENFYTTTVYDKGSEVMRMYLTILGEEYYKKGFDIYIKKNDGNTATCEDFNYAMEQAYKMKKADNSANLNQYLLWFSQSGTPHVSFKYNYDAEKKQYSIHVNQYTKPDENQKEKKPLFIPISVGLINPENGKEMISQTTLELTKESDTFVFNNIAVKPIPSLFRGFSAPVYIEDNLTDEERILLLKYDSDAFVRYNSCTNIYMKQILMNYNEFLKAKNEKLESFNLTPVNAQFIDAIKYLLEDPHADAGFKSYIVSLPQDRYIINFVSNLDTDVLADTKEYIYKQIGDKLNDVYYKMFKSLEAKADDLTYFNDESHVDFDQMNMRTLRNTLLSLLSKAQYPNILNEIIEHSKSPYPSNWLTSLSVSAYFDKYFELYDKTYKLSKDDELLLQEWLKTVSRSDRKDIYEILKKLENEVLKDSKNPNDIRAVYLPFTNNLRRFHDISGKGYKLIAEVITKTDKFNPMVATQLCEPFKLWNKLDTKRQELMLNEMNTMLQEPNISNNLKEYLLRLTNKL
- experimental.details: Inhibition of Plasmodium falciparum FcB1 M1 aminopeptidase at 10 uM
Can you tell me inhibition for the items I'm about to list?
Reply with the number, then its unit.

Problem: Could you share which inhibition value was measured for CN(CCCCc1ccccc1)C(=O)C(Cc1ccccc1)C(=O)NO (centres undefined) ?
Solution: 76%

Problem: Please do the same for CC(C)CN(CCCCc1ccccc1)C(=O)C(Cc1cccc(Oc2ccccc2)c1)C(=O)NO (centres undefined) as well.
Solution: 36%

Problem: Please do the same for O=C(CC(=O)N1CCN(c2ccccc2)CC1)NO as well.
Solution: -9%

Problem: Please do the same for CC(C)CC(C(=O)NO)C(=O)N[C@H]1CCN(Cc2ccccc2)C1 (some centres undefined) as well.
Solution: 58%

---

- measurement.target: UniProt P15145
- experimental.details: Inhibition of pig kidney microsomal APN at 10 uM
Can you tell me inhibition for the items I'm about to list?
The reply should be a number in %, with the unit left off.

Problem: Could you share which inhibition value was measured for O=C(CC(=O)N1CCc2ccccc2C1)NO ?
Solution: 19

Problem: Please do the same for O=C(CC(=O)N1CCC2(CC1)C(=O)NCN2c1ccccc1)NO as well.
Solution: 19

Problem: Please do the same for CC(C)CC(C(=O)NO)C(=O)NC1CCN(Cc2ccccc2)CC1 (stereo not given) as well.
Solution: 57

Problem: Please do the same for CN(Cc1ccccc1)C(=O)C(Cc1cccc(Oc2ccccc2)c1)C(=O)NO (stereo not given) as well.
Solution: 89

Problem: Please do the same for CC(C)CC(C(=O)NO)C(=O)NCc1ccc(Cl)cc1 (stereo not given) as well.
Solution: 99

---

Can you tell me inhibition for the items I'm about to list?
- measurement.target: Aminopeptidase N (Sus scrofa) (UniProt P15145)
- Sequence (P15145 whole entry): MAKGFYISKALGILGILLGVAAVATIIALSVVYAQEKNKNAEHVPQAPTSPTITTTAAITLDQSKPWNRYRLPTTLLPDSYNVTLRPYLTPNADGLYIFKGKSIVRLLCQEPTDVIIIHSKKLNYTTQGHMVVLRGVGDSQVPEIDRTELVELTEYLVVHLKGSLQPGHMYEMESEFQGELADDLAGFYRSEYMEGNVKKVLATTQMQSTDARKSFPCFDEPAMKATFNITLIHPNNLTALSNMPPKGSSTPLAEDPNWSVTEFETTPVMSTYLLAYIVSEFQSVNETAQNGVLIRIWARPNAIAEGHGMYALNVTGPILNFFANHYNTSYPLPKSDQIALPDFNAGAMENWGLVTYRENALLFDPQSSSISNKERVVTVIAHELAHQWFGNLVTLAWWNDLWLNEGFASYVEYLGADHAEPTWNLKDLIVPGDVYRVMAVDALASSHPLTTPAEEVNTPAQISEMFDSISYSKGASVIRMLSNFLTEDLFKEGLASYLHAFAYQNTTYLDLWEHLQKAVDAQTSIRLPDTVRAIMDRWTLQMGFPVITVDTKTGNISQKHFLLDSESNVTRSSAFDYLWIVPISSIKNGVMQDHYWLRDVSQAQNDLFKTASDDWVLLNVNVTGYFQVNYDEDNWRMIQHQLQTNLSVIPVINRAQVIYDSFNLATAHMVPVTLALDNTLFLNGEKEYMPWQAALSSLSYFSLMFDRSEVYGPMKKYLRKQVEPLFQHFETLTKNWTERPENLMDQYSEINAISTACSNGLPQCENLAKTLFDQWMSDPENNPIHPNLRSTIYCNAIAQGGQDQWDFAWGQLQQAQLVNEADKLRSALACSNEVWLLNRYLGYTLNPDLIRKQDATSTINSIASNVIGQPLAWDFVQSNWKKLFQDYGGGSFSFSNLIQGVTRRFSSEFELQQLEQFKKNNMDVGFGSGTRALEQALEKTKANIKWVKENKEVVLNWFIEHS
- experimental.details: Inhibition of pig kidney microsomal APN at 10 uM
The reply should be a number in %, with the unit left off.

Problem: Could you share which inhibition value was measured for CC(C)CC(C(=O)NO)C(=O)NCc1cccc(Oc2ccccc2)c1 (stereo not drawn) ?
Solution: 96

Problem: Please do the same for CN(CCCNC(=O)C(Cc1cccc(Oc2ccccc2)c1)C(=O)NO)c1ccccc1 (stereo not drawn) as well.
Solution: 83

Problem: Please do the same for NC(C(=O)NO)C(=O)NCc1ccccc1 (stereo not drawn) as well.
Solution: 77
